- Tested on: SNB-19 CNS
- METHOD DESCRIPTION: NCI-60 one-dose screen, 48 h (100 = growth as untreated, 0 = no growth, -100 = all killed)
- CONDITION: 10 µM unless noted
- Description: Growth inhibition of the SNB-19 human tumor cell line is measured as a screen for anti-cancer activity. Cells are grown in 96 well plates and exposed to the test compound for 48 hours. Compounds are tested at a single concentration, which is 10^-5 M for most compounds. The reported endpoint is percent growth (GI% or GIPRCNT), where numbers from 0 - 100% represent growth inhibition, and numbers from -100% - 0 represent cell death. For example, a value of 40 represents 60% growth inhibition. […]
The panel holds about 83,000 compounds, 20% with a hit somewhere; the sample as a whole holds those more often. Activity calls are given as the source filed them. Rule for the calls: active = growth percent below 10; inactive = the rest.
Exercise: state measured growth for each of the molecules provided.

For every item in the list below, what is its measured growth?
1. CCN1CCN(c2nc(NCCNc3ccnc4cc(Cl)ccc34)c3ccccc3n2)CC1
2. O=C(CN1C(=O)/C(=C/c2ccc(Cl)cc2)SC1=S)NCCCN1CCOCC1
3. CSc1ccc(-c2ccccc(=O)c2O)cc1

1: 14.4% (inactive); 2: 97.9% (inactive); 3: 17.5% (inactive)

Please supply growth for each of the following items, keeping them in order.
1. Cc1cc(N2CCSCC2)nc(NC2CCCC(Nc3ccnc4cc(Cl)ccc34)C2)n1 (centres undefined)
2. COc1cc(/C=C/c2cc(/C=C/c3ccc(O)c(OC)c3)n(-c3c(C)cccc3C)c(=O)n2)ccc1O
3. O=C(Cc1ccccc1Nc1c(Cl)cccc1Cl)NN1C(=O)/C(=C/c2ccc(Br)cc2)SC1=S
4. CN1CCN(c2ccc3nc(-c4ccc(OCCCCN5CCN(CCCCN6C(=O)c7cccc8cccc(c78)C6=O)CC5)cc4)[nH]c3c2)CC1
5. Cc1cc2nc(NC(=O)CN3CCN(CCN4C(=O)c5cccc6cccc(c56)C4=O)CC3)sc2cc1C
6. Cc1ccccc1COc1ccc(-c2ccnn2-c2ccc(Cl)cc2)cc1

1: 1.4% (active); 2: 13.9% (inactive); 3: 105% (inactive); 4: 84.2% (inactive); 5: 75.3% (inactive); 6: 62% (inactive)
